Test system: Mus musculus
assay.notes: AUClast in NOD/SCID mouse at 100 mg/kg, po by LC-MS-MS analysis
Assay type: ADME, organism-based, Plasma
Parameters: time 0 - last, dose 100 mg/kg, route oral
measurement.setup: in vivo
observed.property: AUClast (ng·h/mL)

[[record]]
structure_as_smiles = "CC/C(=C(/c1ccc(O)cc1)c1ccc(OCCN)cc1)c1ccccc1"
unit_info = "ng·h/mL"
observed_result = 5800

